As shown below, each of these molecules has a reported Ki value.
- tgt: tau (Homo sapiens, UniProt P10636)
- Sequence (P10636 623-695 limits assumed): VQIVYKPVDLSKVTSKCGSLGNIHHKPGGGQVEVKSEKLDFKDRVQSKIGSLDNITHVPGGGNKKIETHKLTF
- testProtocol: Competition binding assay with ^3H-THK5351 in postmortem hippocampus brain homogenates
- studyConditions: vs ^3H-THK5351 1.5 nM, AD hippocampus homogenate; read-out: Ki2 (high-affinity site)
The reply should contain only the number, in nM.

Solved cases (2 shown):
molecule: CNc1ccc(-c2ccc3cc(OCC(O)CF)ccc3n2)cc1 (stereo not drawn)
number: 20
--
molecule: Fc1ccc(-c2ccc3c(c2)[nH]c2ccncc23)cn1
number: 78

Now let's try a different one.
Field request: Ki | item: `CNc1ccc(-c2ccc3cc(OC[C@H](O)CF)ccc3n2)cn1`
16
